- Test system: Enterococcus sp.
- Protocol Text: in vitro antibacterial evaluation, MIC by broth dilution
- Assay type: cell-based
- Measurement Context: broth dilution, 18 hours at 35° C.; strain GC 2243
Numbered stars: 1 amine (or outer) side, 2 acyl side, 3 side chain; on linkers, the order of the positions; unused ones are H or OH. Square brackets hold non-standard residues; d marks the D form. Peptide text beside a SMILES is read from it. * marks the point of attachment. ξ: configuration not given here. X1 = N=C1NCC(C(O)C(N[*:1])C(=O)[*:2])N1C1OC(CO)C(O)C(O)C1O; ξEnduracididine(βξ-OH,4'ξ) = N=C1NCC(C(O)C(N)C(=O)O)N1; X2 = OCC1OC(OC2C(CO)OC(*)C(O)C2O)C(O)C(O)C1O; Cha = N[CH](CC1CCCCC1)C(=O)O
Endpoint Label: MIC Enterococcus faecium (GC 2243) (µg/mL)

Molecule	Target Entity	Endpoint Label	Op	Assay Value
CC(=O)OCC1OC(OC2C(CO)OC(Oc3ccc(CC4NC(=O)C(C(C)c5ccccc5)NC(=O)CNC(=O)C(CO)NC(=O)C(C(O)C5CNC(=N)N5C5OC(CO)C(O)C(O)C5O)NC(=O)C(C(O)C5CNC(=N)N5)NC4=O)cc3)C(O)C2O)C(O)C(OC(=O)CCC(C)C)C1O (centres unmarked) [Example 270b]	Enterococcus sp.	MIC Enterococcus faecium (GC 2243)	=	32
CCCCCC1OCC2OC(OC3C(CO)OC(Oc4ccc(CC5NC(=O)C(C(C)c6ccccc6)NC(=O)CNC(=O)C(CO)NC(=O)C(C(O)C6CNC(=N)N6C6OC(CO)C(O)C(O)C6O)NC(=O)C(C(O)C6CNC(=N)N6)NC5=O)cc4)C(O)C3O)C(O)C(O)C2O1 (centres unmarked) [Example 108]	Enterococcus sp.	MIC Enterococcus faecium (GC 2243)	=	2
CCCCCNC(=O)OCC1OC(OC2C(CO)OC(Oc3ccc(CC4NC(=O)C(C(C)c5ccccc5)NC(=O)CNC(=O)C(CO)NC(=O)C(C(O)C5CNC(=N)N5C5OC(CO)C(O)C(O)C5O)NC(=O)C(C(O)C5CNC(=N)N5)NC4=O)cc3)C(O)C2O)C(O)C(O)C1O (centres unmarked) [Example 251b]	Enterococcus sp.	MIC Enterococcus faecium (GC 2243)	=	64
CCCCCCCC1OCC2OC(OC3C(CO)OC(Oc4ccc(CC5NC(=O)C(C(C)c6ccccc6)NC(=O)CNC(=O)C(CO)NC(=O)C(C(O)C6CNC(=N)N6C6OC(CO)C(O)C(O)C6O)NC(=O)C(C(O)C6CNC(=N)N6)NC5=O)cc4)C(O)C3O)C(O)C(O)C2O1 (centres unmarked) [Example 109]	Enterococcus sp.	MIC Enterococcus faecium (GC 2243)	=	1
CC(C)CC(=O)OC1C(OC2C(CO)OC(Oc3ccc(CC4NC(=O)C(C(C)c5ccccc5)NC(=O)CNC(=O)C(CO)NC(=O)C(CC5CNC(=N)N5C5OC(CO)C(O)C(O)C5O)NC(=O)C(CC5CNC(=N)N5)NC4=O)cc3)C(O)C2O)OC(CO)C(O)C1O (centres unmarked) [Example 277b]	Enterococcus sp.	MIC Enterococcus faecium (GC 2243)	>	64
COC1CCC2(C)C(CCC3C2CCC2(C)C(C(C)CCC4OCC5OC(OC6C(CO)OC(Oc7ccc(CC8NC(=O)C(C(C)c9ccccc9)NC(=O)CNC(=O)C(CO)NC(=O)C(C(O)C9CNC(=N)N9C9OC(CO)C(O)C(O)C9O)NC(=O)C(C(O)C9CNC(=N)N9)NC8=O)cc7)C(O)C6O)C(O)C(O)C5O4)CCC32)C1 (centres unmarked) [Example 130]	Enterococcus sp.	MIC Enterococcus faecium (GC 2243)	=	8
CC(c1ccccc1)C1NC(=O)CNC(=O)C(CO)NC(=O)C(CC2CNC(=N)N2C2OC(CO)C(O)C(O)C2O)NC(=O)C(CC2CNC(=N)N2)NC(=O)C(Cc2ccc(OC3OC(CO)C(OC4OC(CO)C(OCc5ccc(OCc6ccccc6)cc5)C(O)C4O)C(O)C3O)cc2)NC1=O (centres unmarked) [Example 246a]	Enterococcus sp.	MIC Enterococcus faecium (GC 2243)	=	4
CC(C)=CCCC(C)CC1OCC2OC(OC3C(CO)OC(Oc4ccc(CC5NC(=O)C(C(C)c6ccccc6)NC(=O)CNC(=O)C(CO)NC(=O)C(C(O)C6CNC(=N)N6C6OC(CO)C(O)C(O)C6O)NC(=O)C(C(O)C6CNC(=N)N6)NC5=O)cc4)C(O)C3O)C(O)C(O)C2O1 (centres unmarked) [Example 126]	Enterococcus sp.	MIC Enterococcus faecium (GC 2243)	=	8
CCC(C)C(=O)OC1C(CO)OC(OC2C(CO)OC(Oc3ccc(CC4NC(=O)C(C(C)c5ccccc5)NC(=O)CNC(=O)C(CO)NC(=O)C(C(O)C5CNC(=N)N5C5OC(CO)C(O)C(O)C5O)NC(=O)C(C(O)C5CNC(=N)N5)NC4=O)cc3)C(O)C2O)C(O)C1O (centres unmarked) [Example 278c]	Enterococcus sp.	MIC Enterococcus faecium (GC 2243)	=	32
CCCC(C)C1OCC2OC(OC3C(CO)OC(Oc4ccc(CC5NC(=O)C(C(C)c6ccccc6)NC(=O)CNC(=O)C(CO)NC(=O)C(C(O)C6CNC(=N)N6C6OC(CO)C(O)C(O)C6O)NC(=O)C(C(O)C6CNC(=N)N6)NC5=O)cc4)C(O)C3O)C(O)C(O)C2O1 (centres unmarked) [Example 111]	Enterococcus sp.	MIC Enterococcus faecium (GC 2243)	=	1
CCCC(CCC)C(=O)OCC1OC(OC2C(CO)OC(Oc3ccc(CC4NC(=O)C(C(C)c5ccccc5)NC(=O)CNC(=O)C(CO)NC(=O)C(C(O)C5CNC(=N)N5C5OC(CO)C(O)C(O)C5O)NC(=O)C(C(O)C5CNC(=N)N5)NC4=O)cc3)C(O)C2O)C(O)C(O)C1O (centres unmarked) [Example 99c]	Enterococcus sp.	MIC Enterococcus faecium (GC 2243)	=	4
N=C1NCC(C(O)C2NC(=O)C(Cc3ccc(OC4OC(CO)C(OC5OC(CO)C(O)C(O)C5O)C(O)C4O)cc3)NC(=O)C(CC3CCCCC3)NC(=O)CNC(=O)C(CO)NC(=O)C(C(O)C3CNC(=N)N3C3OC(CO)C(O)C(O)C3O)NC2=O)N1 (stereo not drawn) [Example 263] (cyclo(G[Cha]Y(X2)[ξEnduracididine(βξ-OH,4'ξ)][X1]S); configuration not given here)	Enterococcus sp.	MIC Enterococcus faecium (GC 2243)	>	64
COc1ccc2cc(COC3C(CO)OC(OC4C(CO)OC(Oc5ccc(CC6NC(=O)C(C(C)c7ccccc7)NC(=O)CNC(=O)C(CO)NC(=O)C(CC7CNC(=N)N7C7OC(CO)C(O)C(O)C7O)NC(=O)C(CC7CNC(=N)N7)NC6=O)cc5)C(O)C4O)C(O)C3O)ccc2c1 (centres unmarked) [Example 245a]	Enterococcus sp.	MIC Enterococcus faecium (GC 2243)	=	4
CC(C)CC(=O)OC1C(O)C(CO)OC(OC2C(CO)OC(Oc3ccc(CC4NC(=O)C(C(C)c5cccc(F)c5)NC(=O)CNC(=O)C(CO)NC(=O)C(C(O)C5CNC(=N)N5C5OC(CO)C(O)C(O)C5O)NC(=O)C(C(O)C5CNC(=N)N5)NC4=O)cc3)C(O)C2O)C1O (centres unmarked) [Example 264b]	Enterococcus sp.	MIC Enterococcus faecium (GC 2243)	=	64
